testTarget: FtsZ (Y371W) (Escherichia coli, UniProt P0A9A6, Y371W)
Sequence (P0A9A6 whole entry Y371W): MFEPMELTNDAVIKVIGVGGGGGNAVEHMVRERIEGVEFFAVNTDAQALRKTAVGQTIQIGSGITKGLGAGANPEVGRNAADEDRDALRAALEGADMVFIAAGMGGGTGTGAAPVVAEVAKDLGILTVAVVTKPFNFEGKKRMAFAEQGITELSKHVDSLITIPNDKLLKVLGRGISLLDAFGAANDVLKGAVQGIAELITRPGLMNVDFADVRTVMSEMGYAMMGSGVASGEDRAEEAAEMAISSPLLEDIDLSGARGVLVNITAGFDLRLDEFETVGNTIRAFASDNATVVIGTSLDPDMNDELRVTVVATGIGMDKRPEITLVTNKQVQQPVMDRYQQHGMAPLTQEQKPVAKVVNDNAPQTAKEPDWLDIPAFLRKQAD
measurementNotes: Binding to FtsZ by tryptophan fluorescence quenching, double reciprocal plot
conditionInfo: FtsZ (Y371W) 1 μM, 25° C., read-out: dissociation constant of FtsZ-compound complex
quantityKind: Kd (µM)
Numeric answer only, unit µM assumed.

Ask: Look up Kd with FtsZ (Y371W) (Escherichia coli, UniProt P0A9A6, Y371W) for this compound: O=C(O)c1cccc(-c2ccc(C=C3SC(=S)N(c4cccc(C(F)(F)F)c4)C3=O)o2)c1
Result: 15
